SUBJECT OF TEST: IRAK4 enzyme (Homo sapiens (Human))
Sequence (Q9NWZ3 whole entry): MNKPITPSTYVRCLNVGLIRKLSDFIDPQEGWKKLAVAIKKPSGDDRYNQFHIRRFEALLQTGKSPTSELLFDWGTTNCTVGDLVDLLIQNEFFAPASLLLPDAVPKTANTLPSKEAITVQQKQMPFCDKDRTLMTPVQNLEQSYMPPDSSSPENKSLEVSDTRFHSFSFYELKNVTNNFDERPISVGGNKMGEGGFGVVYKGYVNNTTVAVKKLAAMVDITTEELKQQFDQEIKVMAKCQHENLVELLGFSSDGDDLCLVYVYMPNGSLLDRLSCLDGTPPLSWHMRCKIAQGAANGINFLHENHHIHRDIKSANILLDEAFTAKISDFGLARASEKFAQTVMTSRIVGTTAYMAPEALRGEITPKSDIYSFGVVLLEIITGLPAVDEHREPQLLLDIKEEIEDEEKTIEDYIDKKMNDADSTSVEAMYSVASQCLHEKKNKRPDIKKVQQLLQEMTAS
EXPERIMENT: biochemical
Format: biochemical
CONDITION CONTEXT: IRAK4 enzyme, TR-FRET, 500 μM ATP
This section presents molecules with their documented log10(IC50) values.
Please keep in mind that the values are log10 of IC50 expressed in nM.

Recorded log10(IC50), per entry:
{"COMPOUND": "CC(C)(O)[C@H](F)CNC(=O)c1cnc(-c2ccc3cc(C#N)cnn23)cc1Nc1ccc(-c2cnoc2)nc1", "READOUT NUMBER": 0.48}
{"COMPOUND": "CN1CCOc2cc(Nc3cc(-c4ccc5cc(C#N)cnn45)ncc3C(=O)N[C@H]3CC[C@H](NC(=O)C4CC4)CC3)ccc21", "READOUT NUMBER": 0.48}
{"COMPOUND": "CC(C)Cc1cccc(Nc2cc(-c3ccc4cc(C#N)cnn34)ncc2C(=O)NC[C@@H](F)C(C)(C)O)c1", "READOUT NUMBER": 1.76}
{"COMPOUND": "C[C@]1(O)C[C@@H](Nc2cc(-c3ccc4cc(C#N)cnn34)ncc2C(=O)NCC#N)C1", "READOUT NUMBER": 0.00}

Recorded log10(IC50) of CC(C)Nc1cc(-c2ccc3cc(C#N)cnn23)ncc1C(=O)NNC(=O)C(C)(C)O , please.
1.66

If you can, please state the reported log10(IC50) value of CC(=O)N1Cc2ccc(Nc3cc(-c4ccc5cc(C#N)cnn45)ncc3C(=O)NC[C@@H](F)C(C)(C)O)cc2C1 .
0.00

Quick check: log10(IC50) of Cc1ccc(-c2cc(Nc3cc(-c4ccc5cc(C#N)cnn45)ncc3C(=O)NC[C@@H](F)C(C)(C)O)n(-c3ccccc3)n2)cc1 ?
3.00
